Where do the numbers come from? From ChEMBL document CHEMBL1201862.

System: HCT-116
assay_comment: NCI tumour cell line growth inhibition, 48 h
Calls of active or inactive are those of the source. No stated cut-off is given here; in the data, active = GI50 up to about 1.1 µM and inactive = higher.
Your response should consist of one outcome taken from active, inactive

Exercise: How did this test come out for N=C(N)Nc1ccc(CC(N)C(=O)O)cc1 (stereo not given) ?
Solution: inactive

Exercise: Now the molecule N#Cc1nc(C2CCC2)oc1N
Solution: inactive

Exercise: Request: O=c1ccn(-c2ccccn2)c(=O)n1-c1ccccn1
Solution: inactive

Exercise: Quick one: COc1ccc(/C(=N/NC(=O)NN)C(c2ccc(OC)cc2)C2(O)CNc3c(Cl)cc(Cl)cc32)cc1 (stereo not given)
Solution: inactive

Exercise: Please do the same for CSC1NC=Nc2c1sc(=S)n2-c1ccccc1 (stereo not given) as well.
Solution: inactive

Exercise: Proceed to Cc1cc(S(=O)(=O)Nc2nc3ccccc3n2-c2ccccc2)c(S)cc1Cl
Solution: inactive

Exercise: Try N#CC(NNC(=O)Cc1ccccc1)c1c(O)ccc2ccccc12 (stereo not given) next.
Solution: inactive

Exercise: Can you check CS/C(N)=N/c1cccc2ccccc12 next?
Solution: inactive

New cases:
Exercise: Outcome logged for CN(C)c1ccc(/C=c2\sc3nnc(-c4cccnc4)n3c2=O)cc1 in this assay:
Solution: inactive

Exercise: Ok, now Cc1c2ccccc2c(CO)c2cc(F)c3ccccc3c12
Solution: inactive

Exercise: And the next one, Cc1cc2c(=O)c3ccccc3[nH]c2c(C(N)=O)c1C ?
Solution: inactive

Exercise: // next record CCCCc1ccc(Nc2nc(Cl)c3ncn(COCCOC(C)=O)c3n2)cc1
Solution: inactive

----------
System: EKVX
assay_comment: NCI tumour cell line growth inhibition, 48 h
Activity calls are given as the source filed them. No stated cut-off is given here; in the data, active = GI50 up to about 1.1 µM and inactive = higher.
Outcomes you can answer with include only these: yes for active, no for inactive

Worked cases, answers included:
Exercise: Hey, what did the test say about CN(C)c1ccc(/C=N/CC2CCCN3CCCCC23)cc1 (stereo not drawn) ?
Solution: no

Exercise: Then what about the compound Cc1ccc(S(=O)(=O)OC2C3OC(C)(C)OC3OC2C(c2cc(O)c3c(c2O)C(=O)c2ccccc2C3=O)c2cc(O)c3c(c2O)C(=O)c2ccccc2C3=O)cc1 (stereo not drawn) ?
Solution: no

Exercise: Note, next up: CC[C@@]1(O)C(=O)OCc2c1cc1n(c2=O)Cc2cc3cc(OC)ccc3nc2-1
Solution: yes

Exercise: // same read-out, input: CCCNC(=S)N/N=C(\C)c1ccc(S(=O)(=O)N(C)c2ccccc2)cc1
Solution: no

Exercise: Please answer likewise for C/C(=C/CC[C@]1(CO)CC[C@]2(C)[C@H](CC[C@@H]3[C@@]4(C)CC[C@H](OC5OC(CO)C(O)C(O)C5OC5OC(CO)C(O)C(O)C5O)C(C)(C)[C@@H]4CC[C@]32C)[C@H]1O)CO (stereo partly drawn)
Solution: no

---
Exercise: What outcome does the record of this test show for O=c1[nH]ccc2c1ccn2C1CC(O)C(CO)O1 (stereo not drawn) ?
Solution: no

Exercise: Similarly, C(=N\c1ccc(-c2nc3ccccc3o2)cc1)/c1ccco1 ?
Solution: no

Exercise: Now consider O=[N+]([O-])c1cccc(/N=C2\c3ccccc3CN2c2cccc([N+](=O)[O-])c2)c1 .
Solution: no

----------
System: PC-3
assay_comment: NCI tumour cell line growth inhibition, 48 h
The source made the active and inactive calls. Cut-off read from the data, not from the text of the source: active = GI50 up to about 1.1 µM and inactive = higher.
measurement_label: GI50

Exercise: Would you mind telling me what GI50 value was observed for CCOC(=O)c1c(C)c(C)n2c1NC(=O)C2 ?
Solution: 36.8 µM (inactive)

Exercise: Let us now turn to C/C=C1/CN2CCC34C5=CC(=O)C(c6cc7c(cc6OC)N(C)C6=C(C(=O)OC)CC8(CC)CCCN9CCC67C98)=CC5=NC23CCC1C4C(=O)OC (stereo not given)
Solution: 13 µM (inactive)

Exercise: Field entry: NC(=O)C(=CNC(=S)Nc1ccccc1)C(N)=O
Solution: > 100 µM (inactive)

Exercise: Now consider Clc1cc(OC23CC4CC(CC(C4)C2)C3)nc(Cl)n1 .
Solution: > 100 µM (inactive)

Exercise: Field entry: CC1(C)CC(=O)c2c(-c3ccc(Cl)cc3)c(C#N)c(=S)n(C3OC(CO)C(O)C(O)C3O)c2C1 (stereo not given)
Solution: 17.2 µM (inactive)

---
Exercise: Reported GI50, compound COC(=O)[C@@]12CCCC(=O)[C@@H]1[C@H]1CCCC[C@H]12 : ____
Solution: > 100 µM (inactive)

Exercise: Do the same for O=C1N2CCC[C@H]2CS1(=O)=O please
Solution: 16.5 µM (inactive)

----------
Test system: SNB-19
assay_comment: NCI tumour cell line growth inhibition, 48 h
Active and inactive are the calls of the source. No stated cut-off is given here; in the data, active = GI50 up to about 1.1 µM and inactive = higher.
Entries and their GI50

Exercise: Query: GI50; subject: O=[N+]([O-])C[C@@]12O[C@]3(O)C4C5CC(C6C5C3C61)C42 (stereo partly drawn)
Solution: > 100 µM (inactive)

Exercise: Also, C=C1C(=O)O[C@H]2C[C@@H](C)[C@@H]3CC(=O)OC[C@@]3(C)CC12 (stereo partly drawn) please.
Solution: 53.1 µM (inactive)

Exercise: Field entry: CN1S(=O)(=O)N(C)P12(N=P(CP(=NP13(N(C)S(=O)(=O)N1C)N(C)S(=O)(=O)N3C)(c1ccccc1)c1ccccc1)(c1ccccc1)c1ccccc1)N(C)S(=O)(=O)N2C
Solution: > 100 µM (inactive)

---
Exercise: For COC(=O)C(Cc1nc2ccccc2nc1O)/C(=N\NC(C)(C)C)C(=O)Nc1c(C)cc(Br)cc1C (stereo not drawn) , what is its reported GI50?
Solution: 31.1 µM (inactive)

Exercise: Same thing, different molecule: Cn1c(=O)c(C(=O)Nc2nc(C34CC5CC(CC(C5)C3)C4)cs2)c(O)c2ccccc21
Solution: 35.6 µM (inactive)

Exercise: Check COc1cc2c3c4c1OCc1c5c(cc(c1-4)CC3[N+](C)(C)CC2)OCO5 (stereo not drawn) too.
Solution: 4.33 µM (inactive)

Exercise: What about CC(C)[Si]1(C(C)C)OCC2OC(n3cnc4c(N)ncnc43)C(N)C2O[Si](C(C)C)(C(C)C)O1 (stereo not drawn) ?
Solution: 4.88 µM (inactive)

Exercise: CCOC(=O)N1CCN(Cc2cc(=O)n3cc(C)ccc3n2)CC1 ?
Solution: > 100 µM (inactive)

Exercise: Further, for CC1(C)OC(=O)C(=Cc2ccc([N+](=O)[O-])s2)C(=O)O1 ?
Solution: 16.5 µM (inactive)

Exercise: For Cc1coc2c1C[C@@]1(C)[C@H](CCC[C@@H]1C)[C@H]2O then?
Solution: > 100 µM (inactive)

Exercise: Now give it for C=C1[C@H]2O[C@H]2[C@@H](OC(C)=O)[C@@]2(C)[C@@H](OC(C)=O)C[C@@H](OC(=O)CCC)[C@@](C)(O)[C@@H]2[C@@H](OC(C)=O)[C@]2(O)[C@@H](C)C(=O)O[C@H]2[C@H]1Cl too.
Solution: > 100 µM (inactive)

Exercise: // query: CCCCOP1(=O)C=C(C)C(=C(Cl)Cl)C(C)=C1 (stereo not drawn)
Solution: 25.8 µM (inactive)

Exercise: Can you handle COc1ccccc1/N=N/C(=N\NC(=O)c1ccc(C)cc1)c1ccc(N(CCC#N)CCC#N)cc1C next?
Solution: 97.3 µM (inactive)

Exercise: Note, next up: CC(=O)Nc1ccc(-c2nnc(SCC(=O)Nc3ccc(Cl)cc3Cl)o2)cc1
Solution: 22.6 µM (inactive)

Exercise: Another molecule: COc1cccc(OC)c1/C=N\N1C(=O)c2ccccc2C1=O
Solution: > 100 µM (inactive)

Exercise: Also Cc1ccc(S(=O)(=O)N/N=C2\CC3C4CCC3C2C4)cc1 (stereo not drawn) ?
Solution: > 100 µM (inactive)

Exercise: Same question for COc1ccc(N2C(=O)/C(=C\c3cc(OC)c(OC)c(OC)c3)SC2c2ccccc2)cc1 (stereo not drawn) please.
Solution: > 100 µM (inactive)

Exercise: Next molecule: O=c1[nH]c(Nc2nc3ccccc3[nH]2)nc(O)c1Cc1ccccc1
Solution: 67.8 µM (inactive)

----------
System: SNB-19
assay_comment: NCI tumour cell line growth inhibition, 48 h
Calls of active or inactive are those of the source. No stated cut-off is given here; in the data, active = GI50 up to about 1.1 µM and inactive = higher.
measurement_label: GI50

Exercise: Entry COC1CC(n2ccc(=O)[nH]c2=O)OC1CO (stereo unspecified) has what GI50?
Solution: > 100 µM (inactive)

Exercise: Repeat with CC1(C2CCC3(C)C(C2)C3Sc2ccccc2)OCCO1 (stereo unspecified)
Solution: 27 µM (inactive)

Exercise: CS/C(N)=N/c1cccc2ccccc12 , same question.
Solution: > 10 µM (inactive)

Exercise: Proceed to O=C1C=C(Br)C(=O)C(Br)=C1
Solution: > 100 µM (inactive)

Exercise: Would you mind doing O=C1OC(c2ccc([N+](=O)[O-])cc2)=N/C1=C\c1ccc(Cl)cc1 as well?
Solution: > 100 µM (inactive)

Exercise: Same for CCOC(=O)c1sc2nc(SC)nc3c2c1NCN3c1ccc2c(c1)OCO2
Solution: 11.4 µM (inactive)
